// provenance: the supplement of paper PMC12632987

# tested-target: T1, USP38, Q8NB14
# T1 chain: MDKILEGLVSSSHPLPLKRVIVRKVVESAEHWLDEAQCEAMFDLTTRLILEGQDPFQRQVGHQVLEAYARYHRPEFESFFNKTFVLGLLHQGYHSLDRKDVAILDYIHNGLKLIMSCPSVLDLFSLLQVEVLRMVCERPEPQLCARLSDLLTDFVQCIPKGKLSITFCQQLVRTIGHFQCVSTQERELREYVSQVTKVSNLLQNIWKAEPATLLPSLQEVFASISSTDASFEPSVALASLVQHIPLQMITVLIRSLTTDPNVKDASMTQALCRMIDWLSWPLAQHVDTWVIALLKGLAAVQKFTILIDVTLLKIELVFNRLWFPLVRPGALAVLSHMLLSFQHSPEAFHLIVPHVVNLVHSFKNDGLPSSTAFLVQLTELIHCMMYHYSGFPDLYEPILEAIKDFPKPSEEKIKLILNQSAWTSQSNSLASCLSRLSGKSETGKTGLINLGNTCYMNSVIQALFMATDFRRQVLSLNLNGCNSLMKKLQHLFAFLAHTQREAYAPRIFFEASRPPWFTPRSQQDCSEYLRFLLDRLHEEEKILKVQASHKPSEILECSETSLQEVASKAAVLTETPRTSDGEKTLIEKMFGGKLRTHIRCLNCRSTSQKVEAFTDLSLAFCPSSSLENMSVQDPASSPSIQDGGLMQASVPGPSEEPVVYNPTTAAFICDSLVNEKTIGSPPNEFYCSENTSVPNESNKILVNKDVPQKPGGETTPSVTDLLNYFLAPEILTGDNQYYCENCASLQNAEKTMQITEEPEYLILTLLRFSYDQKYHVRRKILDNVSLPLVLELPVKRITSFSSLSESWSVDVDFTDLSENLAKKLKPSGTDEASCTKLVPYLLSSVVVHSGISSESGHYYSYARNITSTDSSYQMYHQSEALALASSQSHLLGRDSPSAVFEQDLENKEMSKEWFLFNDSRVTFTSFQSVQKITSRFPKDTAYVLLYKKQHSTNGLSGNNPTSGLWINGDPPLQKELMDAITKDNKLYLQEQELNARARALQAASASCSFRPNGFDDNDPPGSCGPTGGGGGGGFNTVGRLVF
# method-description: median log2 fold change of GCK-ALFA target abundance (FLAG IP / Myc IP barcode read proportion) (log2 ratio); each designed protein is fused to an ALFA-tag nanobody in HEK293 cells to bring the named protein to FLAG-tagged glucokinase (GCK); Myc marks an untargeted standard; higher = target protein stabilised (more abundant)
# condition-details: target protein: 3xFLAG-MCP-GCK-ALFA reporter; HEK293 landing pad (RPLP)
endpoint-name: median log2 fold change
Simply state the number, no unit and no words.

Param item = usp_38_diff_out_9_42_629 (protein) RKELEERLLELIRETGEVLREAEEVLRELREVDPEAARRFRREVAELLDKIDDKLLKAQRLLLQDESKYPEAQAALDEAERLVEELRRLAEEWRRRLKER ; retrieve measured median log2 fold change.
-0.63

Param item = usp_38_diff_out_2_113_461 (protein) SEEERKERAEDLKEIITEGSDYLLEKAKKGTLSGDTMIVMIGGIVHAAKEAFALDPSVKPTIEEAIKKLEEIKELYKDRNPEVAKAIEDAIKELKALLAK ; retrieve measured median log2 fold change.
-0.00144

Param item = usp_38_diff_out_5_164_607 (protein) GVEEALKELEKTAEELKKKLKELLEEAKKNPEKLDEYKKKITEAVNEAIDKINEITTKALEAHPEQADEILRHYDEVVTEMLTEYNAALEELEKLKKEAA ; retrieve measured median log2 fold change.
-0.164

Param item = usp_38_diff_out_16_25_201 (protein) EVEALLEAHDHLGDAAGYVLRAKESEDEEERKRLLREALESLRRALDILRERLHIPEEEAERIEALIEEAERLLEEGAPFEEVIAVVEEAIDLAAEALAR ; retrieve measured median log2 fold change.
0.237

Param item = usp_38_diff_out_13_43_66 (protein) LEEEAEKVLKELDETLGEIYNLSLELRDKIRESDPETAKKLVEIKKRLDEVGNELADARRDLEIALISGEGLEEAIKKGKEKIEKAKKTIKEAKEELEKL ; retrieve measured median log2 fold change.
0.341

Param item = usp_38_diff_out_3_65_537 (protein) EVEELLEEAERRLEEARELIEALRREVESDPSLTIDEVNARLDEAVDLLVEAGEAIRRARRLDPDPEQRERLEELERRLDEVLRLYRETAEFAFLTVAER ; retrieve measured median log2 fold change.
-0.264

Param item = usp_38_diff_out_5_91_616 (protein) EEERKKIIEKAEELARLLKEAAELLEKGEDYTENIKRAIKLAEELAKALAGGDARERRLSLTFAGLAEALKEIENYPKELQIAMLKAHADVAEEAAELLK ; retrieve measured median log2 fold change.
0.153

Param item = usp_38_diff_out_14_2_94 (protein) GEEELKKKYEETLKVLEEAIKEAKKIKEEVKKDPSIAEEKRKELFEKWDEAADKVGELQKLLEENPEHKELNKKIIEEVNKKITELTKAALEALEELAKA ; retrieve measured median log2 fold change.
0.0575

Param item = usp_38_diff_out_14_2_120 (protein) AVEEIKKATDDTLAKLDAAIAAAKALTAQVKADPSLKEQARAALNAAWDAAGDAVGALNKLLEANKEEKATNKEATAKTNAAITELTAAVLDALTTIEEA ; retrieve measured median log2 fold change.
-0.172

Param item = usp_38_diff_out_3_124_517 (protein) SRADELAAEARATLAELNATLAELEAALDTDLERARELAARADELLARLSGLLLELRDLAREDPRYRPTLKELEAEANAAIDRYTELMTRLFEKEAEAAA ; retrieve measured median log2 fold change.
-0.553

Param item = usp_38_diff_out_16_25_196 (protein) EVEALLRAHDEIGRAAGLVLRAREEEDPERQRELLREALEHLRRALEILREELRVDEETARELEELIERAERLLEEGAPAEEVIAVIEEAIDLAVDALAE ; retrieve measured median log2 fold change.
0.215

Param item = usp_38_diff_out_5_164_608 (protein) GVEEALEELRKIREELEKKLKELLEKAKENPEKLEEYKKEITKAMDEAIDKMNEITTRALEAHPERAEEILREYDEEVTKMLKEYNEVMEKLKKLEEEYK ; retrieve measured median log2 fold change.
0.0441

Param item = usp_38_diff_out_2_113_472 (protein) DPEEKKKEAELYKDIITEGADQLLELAKKGKLTPDRTAVMTAGIVHAAEVAYELDPSVKPTIEEVIKKLEEVYELVKDKNPEVAKIIEEAIKKLKEILKK ; retrieve measured median log2 fold change.
0.269

Param item = usp_38_diff_out_5_164_602 (protein) SLEEYLKEMDELTKELIEELKKLVEEAKKNPEKLEEYKKKINEKTNEAIDKMNEITTKALEEFPEKAEEILKHYSEQIDKMLEAKNAAMKELDALKKAQA ; retrieve measured median log2 fold change.
0.277

Param item = usp_38_diff_out_18_14_340 (protein) SDELAKATLANLKTLTEEVKKVTERTEKIIKKLADDPEAAKSLLDTRKQAYQGVITYAKEVAEEAKAAGYKELLAAAEELKKAAEEALKTLEKLEKELKA ; retrieve measured median log2 fold change.
-0.499

Param item = usp_38_diff_out_3_136_525 (protein) SVAEAREQIKALEATAKALKESMLKLVEELLKDPNVTPEDLRELKEIVLDSFEDIKAEVEKIKKAHPEVKAEADAAIKKIEAYKKEVEAAFDAAIAAKEA ; retrieve measured median log2 fold change.
-0.268

Param item = usp_38_diff_out_16_25_193 (protein) NVEALLRAHDALGRAAGYVVRARELGESPEARELLREAIRALREALRILREELRIPEEVARRIEEAIERAERLLEAGEPVEEVIEALEEAIDLAAAALAA ; retrieve measured median log2 fold change.
0.174
